Run description: Kinetic assay of purified DAOCS with penicillin N as main substrate
Type: biochemical
Particulars: for penicillin N; 0.5 μg purified DAOCS, 30° C., 10 minutes; triplicate, Hanes-Woolf Plot
Method: The cell extract (2 ml) of a candidate mutant was applied onto a HiTrap Q column (5 ml) pre-equilibrated with buffer B (50 mM Mops/pH 7.5, 1 mM DTT, 0.4 mM pefabloc SC, and 0.5 μg/ml leupeptin). […] The standard penicillin G assay was followed for kinetic assay, but 20 μg of purified DAOCS was used and the concentration of α-ketoglutarate was reduced to 1 mM. […] The filtrate was analyzed by HPLC using 25 mM potassium phosphate/pH 6.5 as a mobile phase. […]
Measured attribute: Km (µM)
Supply the numeric figure in µM, leaving out any unit text.

Req: GET /values?readout=Km&item= YS125: mutated DAOCS with substitution N304L as disclosed in Chin H. S. et al (protein, UniProt P18548 1-311, looked up, variant N304L) Deacetoxycephalosporin C …: MDTTVPTFSLAELQQGLHQDEFRRCLRDKGLFYLTDCGLTDTELKSAKDLVIDFFEHGSEAEKRAVTSPVPTMRRGFTGLESESTAQITNTGSYSDYSMCYSMGTADNLFPSGDFERIWTQYFDRQYTASRAVAREVLRATGTEPDGGVEAFLDCEPLLRFRYFPQVPEHRSAEEQPLRMAPHYDLSMVTLIQQTPCANGFVSLQAEVGGAFTDLPYRPDAVLVFCGAIATLVTGGQVKAPRHHVAAPRRDQIAGSSRTSSVFFLRPNADFTFSVPLARECGFDVSLDGETATFQDWIGGNYVLIRRTSKA
Resp: 18

Req: GET /values?readout=Km&item= YS110: mutated penicillin expandase (DAOCS) with substitution Y184H (protein, UniProt P18548 1-311, looked up, variant Y184H) Deacetoxycephalosporin C …: MDTTVPTFSLAELQQGLHQDEFRRCLRDKGLFYLTDCGLTDTELKSAKDLVIDFFEHGSEAEKRAVTSPVPTMRRGFTGLESESTAQITNTGSYSDYSMCYSMGTADNLFPSGDFERIWTQYFDRQYTASRAVAREVLRATGTEPDGGVEAFLDCEPLLRFRYFPQVPEHRSAEEQPLRMAPHHDLSMVTLIQQTPCANGFVSLQAEVGGAFTDLPYRPDAVLVFCGAIATLVTGGQVKAPRHHVAAPRRDQIAGSSRTSSVFFLRPNADFTFSVPLARECGFDVSLDGETATFQDWIGGNYVNIRRTSKA
Resp: 295

Req: GET /values?readout=Km&item= YS12: mutated penicillin expandase (DAOCS) with substitution N304K (protein, UniProt P18548 1-311, looked up, variant N304K) Deacetoxycephalosporin C …: MDTTVPTFSLAELQQGLHQDEFRRCLRDKGLFYLTDCGLTDTELKSAKDLVIDFFEHGSEAEKRAVTSPVPTMRRGFTGLESESTAQITNTGSYSDYSMCYSMGTADNLFPSGDFERIWTQYFDRQYTASRAVAREVLRATGTEPDGGVEAFLDCEPLLRFRYFPQVPEHRSAEEQPLRMAPHYDLSMVTLIQQTPCANGFVSLQAEVGGAFTDLPYRPDAVLVFCGAIATLVTGGQVKAPRHHVAAPRRDQIAGSSRTSSVFFLRPNADFTFSVPLARECGFDVSLDGETATFQDWIGGNYVKIRRTSKA
Resp: 4

Req: GET /values?readout=Km&item= YS53: mutated penicillin expandase (DAOCS) with substitution C281Y (protein, UniProt P18548 1-311, looked up, variant C281Y) Deacetoxycephalosporin C …: MDTTVPTFSLAELQQGLHQDEFRRCLRDKGLFYLTDCGLTDTELKSAKDLVIDFFEHGSEAEKRAVTSPVPTMRRGFTGLESESTAQITNTGSYSDYSMCYSMGTADNLFPSGDFERIWTQYFDRQYTASRAVAREVLRATGTEPDGGVEAFLDCEPLLRFRYFPQVPEHRSAEEQPLRMAPHYDLSMVTLIQQTPCANGFVSLQAEVGGAFTDLPYRPDAVLVFCGAIATLVTGGQVKAPRHHVAAPRRDQIAGSSRTSSVFFLRPNADFTFSVPLAREYGFDVSLDGETATFQDWIGGNYVNIRRTSKA
Resp: 6
